This listing pairs molecules with measured inhibition.
Assay: growth inhibition of non-replicating M. tuberculosis (AID 488890);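 note: plate controls were DMSO cells for no effect and high antibiotic wells for full effect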
Conditions: Mycobacterium tuberculosis non-replicating, at 25 µM, stronger effect = higher value
In all, about 320,000 compounds went through this assay and about 1,300 (0.41%) were called active. Roughly 3% stayed inconclusive and do not appear here. Only a sample is shown. Potency and affinity values are given separately.
quantity.name: inhibition (%)

molecule	quantity.name	value.reported
COc1ccc(CCNC(=O)COc2ccc(-c3ccc(C)cc3)cc2)cc1OC	inhibition	25.9
CCOc1ccc(N2C(=O)CNC2=S)cc1	inhibition	27.5
Cc1ccc(CS(=O)(=O)c2ncc(Cl)c(C(=O)Nc3ccc(OC(F)F)cc3)n2)cc1	inhibition	-1.41
CC(NS(=O)(=O)c1ccc2c(c1)CC(C)N2C(=O)C1CC1)c1ccccc1 (stereo not drawn)	inhibition	12.7
CCS(=O)(=O)c1ncc(Cl)c(C(=O)Nc2ccc(S(=O)(=O)N3CCCC(C)C3)cc2)n1 (stereo not drawn)	inhibition	58.5
CCOC(=O)N1CCN(S(=O)(=O)c2ccc(C)cc2)C1c1ccc(OC)cc1 (stereo not drawn)	inhibition	16.9
O=C(Nc1cc(Cl)ccc1Cl)c1ccco1	inhibition	-1.55
COc1cc(S(=O)(=O)N2CCOCC2)cc(C(=O)OCC(=O)NC2CCCCC2)c1OC	inhibition	-1.4
Cc1ccc(NC(=O)c2ccc([N+](=O)[O-])s2)cc1S(=O)(=O)N1CCOCC1	inhibition	43.2
O=C(c1ccc([N+](=O)[O-])o1)N1CCCCCC1	inhibition	56.6
O=C1c2cccc(OCC(=O)N3CCCc4ccccc43)c2CCN1Cc1cccnc1	inhibition	15.4
CN(C)C(CNC(=O)CCOc1ccccc1)c1ccco1 (stereo not drawn)	inhibition	13.7
CS(=O)(=O)Nc1ccccc1C(=O)NC1CC2CCC1C2 (stereo not drawn)	inhibition	-26.9
CN(c1ccccc1)S(=O)(=O)c1ccc(NC(=O)c2nc(S(C)(=O)=O)ncc2Cl)cc1	inhibition	56
Cc1onc(-c2ccccc2)c1C(=O)Nc1nc(-c2cc(F)ccc2F)cs1	inhibition	-10.6
O=C(c1ccc([N+](=O)[O-])cc1)N1CCc2ccccc2C1	inhibition	39.6
COCCn1c(=NC(=O)CSCC(=O)N2CCOCC2)sc2ccccc21	inhibition	-8.23
Cc1nc(-c2ccc(-n3nncc3-c3ccco3)cc2)cs1	inhibition	58.1
O=C(Nc1ccc(S(=O)(=O)N2CCOCC2)cc1)c1ccc(Cl)s1	inhibition	5.17
CCN(c1ccccc1)S(=O)(=O)c1ccc(NC(=O)c2nc(S(C)(=O)=O)ncc2Cl)cc1	inhibition	37.2
Cc1ccc(NC(=O)COC(=O)CC2CC3CCC2C3)cc1S(=O)(=O)N1CCOCC1 (stereo not drawn)	inhibition	9.66
COc1cc2c(cc1OC)CN(C(=O)c1ccc(Br)o1)CC2	inhibition	-1.97
Cc1cc(=O)[nH]c(SCC(=O)N2CCC(Cc3ccccc3)CC2)n1	inhibition	0.43
COCC(=O)Nc1nc2ccc(C)cc2s1	inhibition	49
O=C(Nc1cc(Cl)ccc1Cl)c1ccc(OC(=O)c2ccco2)cc1	inhibition	49.5
CCOC(=O)C1(Cc2ccc(OC)cc2)CCN(C(=O)CN2CCOC2=O)CC1	inhibition	-7.21
Cc1ccccc1C(=O)N1CCN(c2ncccn2)CC1	inhibition	-10.1
O=C(Nc1cc(S(=O)(=O)N2CCOCC2)ccc1N1CCOCC1)c1ccc([N+](=O)[O-])s1	inhibition	50.4
O=C(CSc1nncs1)Nc1nccs1	inhibition	-27.1
O=C(CSc1nc(=O)n(CCCN2CCOCC2)c2c1CCCC2)Nc1ccccc1Cl	inhibition	11.7
COc1ccccc1C1C(C(=O)c2ccco2)=C(O)C(=O)N1c1cc(C)on1 (stereo not drawn)	inhibition	16.5
Cn1c(N2CCN(C(c3ccccc3)c3ccccc3)CC2)nc2c1c(=O)[nH]c(=O)n2C	inhibition	-1.75
COc1ccccc1NC(=O)COC(=O)/C=C/c1ccccc1[N+](=O)[O-]	inhibition	65.2
COCCNC(=O)c1nc2ccccc2s1	inhibition	52.5
CSc1ccccc1C(=O)C1CCCN(S(=O)(=O)c2c(C)noc2C)C1 (stereo not drawn)	inhibition	-0.64
C#CCOCCOCCOCCNc1nc(N2CCN(C(=O)C([C@@H](C)CC)n3cc(C(N)CC(C)C)nn3)CC2)nc(N2CCN(C(=O)[C@H](CCC(=O)O)n3cc(C(N)CC(C)C)nn3)CC2)n1 (stereo partly drawn)	inhibition	-10.1
CCc1ccc(NC(=O)c2nc(S(=O)(=O)Cc3ccccc3)ncc2Cl)cc1	inhibition	0.81
Cc1csc(NC(=O)c2cnccn2)n1	inhibition	16.7
NS(=O)(=O)c1ccc(NC(=O)c2ccc(S(=O)(=O)N3CCOCC3)o2)cc1	inhibition	1.05
COc1ccc([N+](=O)[O-])cc1NC(=O)CCCOc1ccccc1	inhibition	12.4
Cc1ccc(S(=O)(=O)N2[C@@H](c3ccc4c(c3)OCO4)C(C(=O)O)=C[C@H]2C(C)(C)C)cc1	inhibition	41.7
CCOc1ccc(N2CC(=O)N(c3ccc(OCC)cc3)CC2=O)cc1	inhibition	2.08
Cc1ccc(O)c(CO)n1	inhibition	1.36

---

This listing pairs compounds with measured inhibition.
Assay: growth inhibition of non-replicating M. tuberculosis (AID 488890);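 note: plate controls were DMSO cells for no effect and high antibiotic wells for full effect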
Conditions: Mycobacterium tuberculosis non-replicating, at 25 µM, stronger effect = higher value
Out of some 320,000 compounds screened, about 1,300 (0.41%) were called active. Roughly 3% stayed inconclusive and do not appear here. Not all results are given here. Potency and affinity values are given separately.
quantity.name: inhibition (%)

compound	value.reported
COc1ccc2[nH]c(C)c(CCNCc3cn(C)c4ccccc34)c2c1	60.3
O=C(CSc1nnc(COc2ccccc2F)n1-c1ccccc1)NC1CCS(=O)(=O)C1 (configuration not stated)	-2.12
CCN(CC(=O)Nc1cccc(OC)c1)CC(=O)Nc1ccc(C)cc1Cl	13.4
Cc1ccc(S(=O)(=O)Nc2ccc(F)cc2)cc1C(=O)N1CCOCC1	-12.4
CCN(CC(=O)Nc1c(F)cccc1F)C(=O)CNC(=O)c1ccc2ccccc2c1	18.6
Cc1ccc(C(=O)Nc2ccc(C(=O)N/N=C/c3ccc(C)o3)cc2)cc1	9.26
COc1ccc(-c2cc3ccccc3oc2=O)cc1	24.3
CC(=O)C[C@@H](O)CC(=O)[C@@H]1OC(=O)CCCCCCCc2ccccc21	4.28
Cc1cc(C)n(-c2nc(NCCCN(C)C)c3c4c(sc3n2)CCCC4)n1	75.9
COc1ccccc1CCC(=O)OCC(=O)NCc1ccc(OC)c(OC)c1	-1.1
Clc1ccccc1CSc1nncn1NC/C=C/c1ccccc1	19.6
Cc1ccc(NC(=O)COC(=O)CN2C(=O)C3CCCCC3C2=O)cc1S(=O)(=O)N1CCOCC1 (configuration not stated)	6.8
COC(=O)CSc1nnc2c3c4c(sc3nc(-n3nc(C)cc3C)n12)COC(C)(C)C4	0.76
CCCCCCNc1nc(OC)nc(N2CC3CC(C2)c2cccc(=O)n2C3)n1 (configuration not stated)	3.85
COC(=O)c1ccc(CSc2nnc(-c3ccncc3)n2Cc2ccccc2)o1	12.6
CN(C)c1ccc(C=C2C(=O)OC(C)(C(C)(C)C)OC2=O)cc1 (configuration not stated)	-8.32
O=C(CSc1nnc(CNC(=O)c2ccccc2F)o1)NCC1CCCO1 (configuration not stated)	4.55
Cc1cc(C)n(-c2nc(NCC(C)O)c3c4c(sc3n2)CCCC4)n1 (configuration not stated)	79.3
Cc1cc(C)n(-c2nc(SCC(=O)O)c3c4c(sc3n2)COC(C)(C)C4)n1	78.8
Cc1ccc(-c2cc(C(=O)OCn3nnc4ccccc4c3=O)c3ccccc3n2)cc1	-0.92
COc1ccc(/C=C2\N=C(C(C)(C)C)OC2=O)c(OC)c1	64.4
CCOc1ccc(OCCCC(=O)NC2=NCCS2)cc1	40.7

---

Assay: growth inhibition of non-replicating M. tuberculosis (AID 488890);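 note: plate controls were DMSO cells for no effect and high antibiotic wells for full effect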
Conditions: Mycobacterium tuberculosis non-replicating, at 25 µM, stronger effect = higher value
Screen size: about 320,000 compounds; about 1,300 (0.41%) were called active. Another 3% or so got no clear call; they are omitted. The list is a sample of the results. Entries with a potency or affinity are not part of this list.

compound	inhibition / %
O=C(Oc1cccnc1)c1ccc(Cl)cc1	8.07
Nc1nc2nc(SCC(=O)N3CCCc4ccccc43)[nH]c2c(=O)[nH]1	0.84
CN1CCC(NC(=O)c2cccs2)CC1	-14.8
CN1CC(C(=O)c2ccccc2)C(C(=O)c2ccccc2)C1 (centres undefined)	14.7
Cn1cccc1/C=C1\C(=O)NC(=O)N(Cc2ccccc2)C1=O	73
CN1CCCC(C(=O)c2ccccc2)C1 (centres undefined)	-7.66
CCCCCCn1c(COc2ccccc2F)nnc1SCC(=O)c1c(N)n(C)c(=O)n(C)c1=O	-10.3
COc1cccc(O)c1CN1CCC(C(=O)Nc2ccc(Oc3cccnc3)cc2)CC1	19.3
Cc1cccc(C(=O)Nc2cccc(OCC(=O)O)c2)c1	-11.3
Cc1cccc(C(=O)Nc2cccc(OC(=O)c3cccc(C)c3)c2)c1	51.4
C=CCNc1oc(-c2cccs2)nc1C#N	-2.7
CC1CN(C(=O)c2cccs2)CC(C)O1 (centres undefined)	-2.97
CCCc1nc2c(=O)[nH]c3ccccc3c2o1	-9.47
COc1ccc(CCNS(=O)(=O)c2c(N)n(C)c(=O)n(C)c2=O)cc1OC	3.12
COc1ccc(CCNC(=O)Cc2ccc(OC)c(OC)c2)cc1OC	13.8
CN1CC(C(=O)c2ccc(Cl)cc2)C(c2ccc(Cl)cc2Cl)C1 (centres undefined)	55.7
CCCCc1nc2c(=O)[nH]c3ccccc3c2o1	-16.6
COc1ccccc1N1C[C@@H]2C[C@@H](c3ccco3)N3CCC[C@@]23C1=O	14.9
CC1(C)CC(=O)C2=C(C1)OC(N)=C(C#N)C2Cc1ccccc1 (centres undefined)	25
COC(=O)COc1cccc(NC(=O)c2cc(OC)cc(OC)c2)c1	58.8
OCCCn1c(CCNc2nc(-c3ccc(F)cc3)cs2)nc2cc(C(F)(F)F)ccc21	26.8
CN1CCCC(C(=O)c2ccc(Cl)cc2)C1 (centres undefined)	2.9
CCc1ccc(OCC(=O)O/N=C(\N)c2ccncc2)cc1	35.7
Cc1cc(NC(=O)CSc2nnnn2-c2ccc(C)c(C)c2)no1	-1.12
